- TARGET: Glycogen synthase kinase-3 beta (Homo sapiens, UniProt P49841)
- Sequence (P49841 whole entry): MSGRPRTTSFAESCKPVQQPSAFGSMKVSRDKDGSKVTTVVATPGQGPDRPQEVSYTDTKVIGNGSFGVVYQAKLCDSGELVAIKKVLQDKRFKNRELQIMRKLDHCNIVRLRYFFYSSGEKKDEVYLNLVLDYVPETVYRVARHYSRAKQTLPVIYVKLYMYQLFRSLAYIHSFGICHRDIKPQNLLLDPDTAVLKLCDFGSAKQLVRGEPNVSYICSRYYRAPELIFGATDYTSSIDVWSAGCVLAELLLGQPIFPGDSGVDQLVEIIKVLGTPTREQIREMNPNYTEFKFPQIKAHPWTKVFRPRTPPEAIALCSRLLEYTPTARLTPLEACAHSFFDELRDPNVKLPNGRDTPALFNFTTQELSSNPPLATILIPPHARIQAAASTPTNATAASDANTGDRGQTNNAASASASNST
- TEST SUMMARY: Inhibition of human recombinant GSK-3beta using GS2 peptide as substrate and [gamma33P]-ATP after 30 mins by scintillation counting
- CONDITION SET: read-out: IC50
Lab note: cut-off is 2 µM. Strictly less in IC50 is label 1. Exactly 2 µM or more is label 0.

COMPOUND: CC1=C(O)/C(=C/[C@H](C)CCC/C(C)=C/CCc2coc(Cc3ccoc3)c2)OC1=O
TARGET: Glycogen synthase kinase-3 beta (Homo sapiens, UniProt P49841)
CATEGORY: label 1

COMPOUND: CCCCCCCCCC(=O)OC[C@H](O)[C@H]1OC(=O)C(O)=C1O
TARGET: Glycogen synthase kinase-3 beta (Homo sapiens, UniProt P49841)
CATEGORY: label 0

COMPOUND: CCCCCCCCCCCCCC(=O)OC[C@H](O)[C@H]1OC(=O)C(O)=C1O
TARGET: Glycogen synthase kinase-3 beta (Homo sapiens, UniProt P49841)
CATEGORY: label 0

COMPOUND: CC1=C(O)/C(=C/[C@H](C)CC/C=C(/C)CCCc2coc(Cc3ccoc3)c2)OC1=O
TARGET: Glycogen synthase kinase-3 beta (Homo sapiens, UniProt P49841)
CATEGORY: label 0

COMPOUND: CC1=C(O)[C@@H](C/C(C)=C/CCC(C)/C=C/C=C(\C)CCCc2ccoc2)OC1=O (stereo in doubt; B) [PALINURIN]
TARGET: Glycogen synthase kinase-3 beta (Homo sapiens, UniProt P49841)
CATEGORY: label 1

COMPOUND: CC1=C(O)[C@@H](C/C(C)=C/CCC(C)/C=C/C=C(\C)CCCc2ccoc2)OC1=O (stereo in doubt; A) [PALINURIN]
TARGET: Glycogen synthase kinase-3 beta (Homo sapiens, UniProt P49841)
CATEGORY: label 0

COMPOUND: CCCCCCCC(=O)OC[C@H](O)[C@H]1OC(=O)C(O)=C1O
TARGET: Glycogen synthase kinase-3 beta (Homo sapiens, UniProt P49841)
CATEGORY: label 0

# credit: ChEMBL document CHEMBL2311349
